- Assay text: Apparent permeability of compound across gastrointestinal tract mimic in PBS buffer incubated for 5 hrs by PAMPA assay based HPLC analysis
- Type: ADME
Quick list: Papp at 5 h per entry.
Just the number in ×10⁻⁶ cm/s, nothing appended.

Compound: COc1ccc(OC)c(C2=NN(C(C)=O)C(c3ccc(-c4ccccc4)cc3)C2)c1 (stereo not given)
Papp at 5 h [×10⁻⁶ cm/s]: 6.87
//
Compound: CC(=O)N1N=C(c2ccc(-c3ccccc3)cc2)CC1c1ccc2c(c1)OCO2 (stereo not given)
Papp at 5 h [×10⁻⁶ cm/s]: 8.75
//
Compound: CC(=O)N1N=C(c2ccc(Br)cc2)CC1c1ccc(-c2ccccc2)cc1 (stereo not given)
Papp at 5 h [×10⁻⁶ cm/s]: 4.9

Which value of Papp at 5 h has been reported for COc1ccc(C2CC(c3ccc(-c4ccccc4)cc3)=NN2C(C)=O)cc1OC (stereo not given) in the records?
9.02

Which value of Papp at 5 h has been reported for CC(=O)N1N=C(c2ccc(-c3ccccc3)cc2)CC1c1ccc(C(=O)O)cc1 (stereo not given) in the records?
2.13

###

- Assay text: Apparent permeability of compound across gastrointestinal tract mimic in PBS buffer as membrane retention incubated for 5 hrs by PAMPA assay based HPLC analysis
- Format: ADME, cell membranes
Please enter MET where Activity is greater than or equal to 30%, and NOT MET where it is lower.

Dear colleague, could you confirm whether CC(=O)N1N=C(c2ccc(-c3ccccc3)cc2)CC1c1ccccc1[N+](=O)[O-] (stereo not given) has Activity at or above 30%?
MET

Dear colleague, could you confirm whether CC(=O)N1N=C(c2ccccc2[N+](=O)[O-])CC1c1ccc(-c2ccccc2)cc1 (stereo not given) has Activity at or above 30%?
NOT MET

Dear colleague, could you confirm whether CC(=O)N1N=C(c2ccc3ccccc3c2)CC1c1ccc(-c2ccccc2)cc1 (stereo not given) has Activity at or above 30%?
MET

Dear colleague, could you confirm whether CC(=O)N1N=C(c2ccc(C)cc2)CC1c1ccc(-c2ccccc2)cc1 (stereo not given) has Activity at or above 30%?
MET
